Target: biotinylated human IL-17 (binding to IL17R/Fc) (Homo sapiens, UniProt Q16552)
Construct: 177-IR (IL17R/Fc)
Sequence (Q16552 20-155 limits assumed): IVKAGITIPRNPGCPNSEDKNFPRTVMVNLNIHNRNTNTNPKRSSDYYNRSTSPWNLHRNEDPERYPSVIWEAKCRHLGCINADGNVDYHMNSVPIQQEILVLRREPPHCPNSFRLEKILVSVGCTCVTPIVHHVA
Assay: IL-17 competition ELISA II (captured IL17R/Fc, biotinylated IL-17)
Consider the following molecules and their measured IC50 readings.

- test_smiles: "O=C1CC2(CCCC2)CC(=O)N[C@H](Cc2ccc(NC(=O)[C@H](Cc3ccccc3Cl)NC(=O)Cc3ccc(CO)cc3)cc2)C(=O)N[C@H](Cc2c[nH]cn2)C(=O)NCCCC[C@@H](C(=O)O)N1"
  IC50: "< 0.1 µM"
- test_smiles: "CN1CCOCCOCCNC(=O)[C@@H](Cc2ccc(NC(=O)[C@H](Cc3ccccc3Cl)NC(=O)C(=O)c3ccccc3)cc2)NC(=O)CC2(CCCC2)CC1=O"
  IC50: "< 0.1 µM"
- test_smiles: "O=C1CC2(CCCC2)CC(=O)N[C@H](Cc2ccc(NC(=O)[C@H](Cc3ccccc3Cl)NC(=O)Cc3cccc(O)c3)cc2)C(=O)NCCCC[C@@H](C(=O)O)N1"
  IC50: "< 0.1 µM"
- test_smiles: "O=C1CNC(=O)[C@@H](Cc2ccc(NC(=O)[C@@H](Cc3ccccc3Cl)NC(=O)Cc3ccccc3)cc2)NC(=O)CC2(CCCC2)CC(=O)NCCCCCN1"
  IC50: "0.1 to 1 µM"

// next entry
IC50 recorded for this molecule, O=C1CC2(CCCC2)CC(=O)N[C@H](Cc2ccc(NC(=O)[C@H](Cc3ccccc3Cl)NC(=O)Cc3ccc(CO)cc3)cc2)C(=O)N[C@H](Cc2cscn2)C(=O)NCCCC[C@@H](C(=O)O)N1 , is < 0.1 µM
